Cited source: patent US12441768B2

- assayTarget: β-catenin (Homo sapiens, UniProt P35222)
- testProtocol: KD50 measurement using competitive fluorescence polarization (FP) with labelled TCF4
- Format: binding
- experimentalParameters: fluorescence polarization, β-catenin; read-out: β-Cat FP KD
*1 amine or outer side, *2 acyl side, *3 side chain or, on linkers, in order; H or OH if unused. Where a SMILES comes first, the peptide text is derived from it. Bridges are numbered along the chain shown (N, C = ends). [ ]: non-standard residue; d: D form. The star is where a group is joined. Glutaryl = O=C(CCCC(=O)[*:2])[*:1]; NMeNva = CCC[C@H](NC)C(=O)O; Bn = c1ccc(C*)cc1
measure: Kd

CCC[C@H]1C(=O)N[C@@H](CCC(N)=O)C(=O)N[C@@H](CO)C(=O)N[C@@H](CC(C)C)C(=O)N[C@@H](Cc2ccccc2)C(=O)N(C)[C@@H](CCC)C(=O)N2CCC[C@H]2C(=O)N2CCC[C@H]2C(=O)N(C)[C@@H](CCC)C(=O)N[C@H](C(N)=O)CCCCNC(=O)CCCC(=O)N[C@@H](CCSC)C(=O)N[C@@H](CCSC)C(=O)N1C [compound 3] (MM[NMeNva]QSLF[NMeNva]PP[NMeNva]K-NH2; linker N-12 via Glutaryl) = 10 to 30 µM

Task: May I ask what Kd has been recorded for CC[C@H](C)[C@H](NC(=O)[C@H](CC(C)C)NC(=O)[C@H](Cc1ccccc1)NC(=O)[C@H](Cc1c[nH]c2ccccc12)NC(=O)[C@H](CCSC)NC(=O)[C@H](CCCNC(=N)N)NC(=O)[C@H](CO)NC(=O)[C@@H](N)CCSC)C(=O)N[C@@H](CO)C(=O)N[C@@H](COCc1ccccc1)C(=O)N[C@@H](Cc1c[nH]c2ccccc12)C(=O)O [compound 106] (H-MSRMWFLISS(Bn)W-OH) ?
Result: 1 to 10 µM

Task: May I ask what Kd has been recorded for CC[C@H](C)[C@H](NC(=O)[C@H](CC(C)C)NC(=O)[C@H](Cc1ccccc1)NC(=O)[C@H](Cc1c[nH]c2ccccc12)NC(=O)[C@H](C)N)C(=O)N[C@@H](CO)C(=O)N[C@@H](Cc1ccccc1)C(=O)N[C@@H](Cc1c[nH]c2ccccc12)C(=O)NCC(=O)O [compound 209] (H-AWFLISFWG-OH) ?
Result: 0.4 to 1 µM

====

Let's look at some compounds and their measured viability.
- experimentalParameters: % Viability non-Wnt responsive cells
Where a SMILES comes first, the peptide text is derived from it. The star is where a group is joined. Bn = c1ccc(C*)cc1
Numbers only here, please. The scale is %.

CC[C@H](C)[C@H](NC(=O)[C@H](CC(C)C)NC(=O)[C@H](Cc1ccccc1)NC(=O)[C@H](Cc1c[nH]c2ccccc12)NC(=O)[C@H](CCSC)NC(=O)[C@H](CCCNC(=N)N)NC(=O)[C@H](CO)NC(=O)[C@@H](N)CCSC)C(=O)N[C@@H](CO)C(=O)N[C@@H](COCc1ccccc1)C(=O)N[C@@H](Cc1c[nH]c2ccccc12)C(=O)O [compound 106] (H-MSRMWFLISS(Bn)W-OH) = 105
CC[C@H](C)[C@H](NC(=O)[C@@H]1CCCN1C(=O)[C@H](Cc1ccccc1)NC(=O)[C@H](Cc1c[nH]c2ccccc12)NC(=O)[C@H](CCSC)NC(=O)[C@H](CCCNC(=N)N)NC(=O)[C@H](CO)NC(=O)[C@@H](N)CCSC)C(=O)N[C@@H](CO)C(=O)N[C@@H](Cc1ccccc1)C(=O)N[C@@H](Cc1c[nH]c2ccccc12)C(=O)NCC(=O)O [compound 65] (H-MSRMWFPISFWG-OH) = 105
CC[C@H](C)[C@H](NC(=O)[C@H](CC(C)C)NC(=O)[C@H](Cc1ccccc1)NC(=O)[C@H](Cc1c[nH]c2ccccc12)NC(=O)[C@@H](N)CCSC)C(=O)N[C@@H](CO)C(=O)N[C@@H](Cc1ccccc1)C(=O)N[C@@H](Cc1c[nH]c2ccccc12)C(=O)N(C)[C@@H](C)C(=O)NCC(=O)O [compound 45] (HELM PEPTIDE1{M.W.F.L.I.S.F.W.[meA].G}$$$$V2.0) = 101

Task: May I ask what viability has been recorded for CC[C@H](C)[C@H](NC(=O)[C@H](CC(C)C)NC(=O)[C@H](Cc1ccccc1)NC(=O)[C@H](Cc1c[nH]c2ccccc12)NC(=O)[C@H](CCCCN)NC(=O)[C@H](CCCNC(=N)N)NC(=O)[C@H](CO)NC(=O)[C@@H](N)CCSC)C(=O)N[C@@H](CO)C(=O)N[C@@H](Cc1ccccc1)C(=O)N[C@@H](Cc1c[nH]c2ccccc12)C(=O)NCC(=O)O [compound 59] (H-MSRKWFLISFWG-OH) ?
Result: 102

Task: May I ask what viability has been recorded for CC[C@H](C)[C@H](NC(=O)[C@H](CC(C)C)NC(=O)[C@H](Cc1ccccc1)NC(=O)[C@H](Cc1c[nH]c2ccccc12)NC(=O)[C@H](CCSC)NC(=O)[C@H](CCCNC(=N)N)NC(=O)[C@@H](NC(=O)[C@@H](N)CCSC)[C@@H](C)O)C(=O)N[C@@H](CO)C(=O)N[C@@H](Cc1ccccc1)C(=O)N[C@@H](Cc1c[nH]c2ccccc12)C(N)=O [compound 73] (H-MTRMWFLISFW-NH2) ?
Result: 97.3

====

Let's look at some molecules and their measured β-Cat FP Hill slope.
- assayTarget: β-catenin (Homo sapiens)
- testProtocol: KD50 measurement using competitive fluorescence polarization (FP) with labelled TCF4
- Type: binding
- experimentalParameters: fluorescence polarization, β-catenin
Where a SMILES comes first, the peptide text is derived from it.
No unit in the answer, only the number.

CC[C@H](C)[C@H](NC(=O)[C@H](CC(C)C)NC(=O)[C@@H](NC(=O)[C@H](Cc1c[nH]c2ccccc12)NC(=O)[C@@H](N)Cc1c[nH]cn1)[C@@H](C)CC)C(=O)N[C@@H](CO)C(=O)N[C@@H](Cc1ccccc1)C(=O)N[C@@H](Cc1c[nH]c2ccccc12)C(=O)NCC(=O)O [compound 126] (H-HWILISFWG-OH) = 0.99
CC[C@H](C)[C@@H]1NC(=O)[C@H](CC(C)C)NC(=O)[C@H](Cc2ccccc2)NC(=O)[C@H](Cc2c[nH]c3ccccc23)NC(=O)[C@H](CCSC)NC(=O)[C@@H](N)CCCCNC(=O)C[C@@H](C(=O)O)NC(=O)[C@H](Cc2c[nH]c3ccccc23)NC(=O)[C@H](C)NC(=O)[C@H](CS)NC1=O [compound 167] (HELM PEPTIDE1{K.M.W.F.L.I.C.A.W.D}$PEPTIDE1,PEPTIDE1,1:R3-10:R3$$$V2.0) = 0.7

We next turn to a different molecule, shown below.
Task: May I ask what β-Cat FP Hill slope has been recorded for CC[C@H](C)[C@H](NC(=O)[C@H](CC(C)C)NC(=O)[C@@H](NC(=O)[C@H](Cc1c[nH]c2ccccc12)NC(=O)[C@H](CCSC)NC(C)=O)[C@@H](C)CC)C(=O)N[C@@H](CO)C(=O)N[C@@H](Cc1ccccc1)C(=O)N[C@@H](Cc1c[nH]c2ccccc12)C(=O)NCC(=O)OC [compound 222] (HELM PEPTIDE1{[ac].M.W.I.L.I.S.F.W.G.[CO[*:1]]}$$$$V2.0) ?
Result: 1.56

====

Let's look at some molecules and their measured Kd.
- assayTarget: β-catenin (Homo sapiens, UniProt P35222)
- Sequence (P35222 1-781): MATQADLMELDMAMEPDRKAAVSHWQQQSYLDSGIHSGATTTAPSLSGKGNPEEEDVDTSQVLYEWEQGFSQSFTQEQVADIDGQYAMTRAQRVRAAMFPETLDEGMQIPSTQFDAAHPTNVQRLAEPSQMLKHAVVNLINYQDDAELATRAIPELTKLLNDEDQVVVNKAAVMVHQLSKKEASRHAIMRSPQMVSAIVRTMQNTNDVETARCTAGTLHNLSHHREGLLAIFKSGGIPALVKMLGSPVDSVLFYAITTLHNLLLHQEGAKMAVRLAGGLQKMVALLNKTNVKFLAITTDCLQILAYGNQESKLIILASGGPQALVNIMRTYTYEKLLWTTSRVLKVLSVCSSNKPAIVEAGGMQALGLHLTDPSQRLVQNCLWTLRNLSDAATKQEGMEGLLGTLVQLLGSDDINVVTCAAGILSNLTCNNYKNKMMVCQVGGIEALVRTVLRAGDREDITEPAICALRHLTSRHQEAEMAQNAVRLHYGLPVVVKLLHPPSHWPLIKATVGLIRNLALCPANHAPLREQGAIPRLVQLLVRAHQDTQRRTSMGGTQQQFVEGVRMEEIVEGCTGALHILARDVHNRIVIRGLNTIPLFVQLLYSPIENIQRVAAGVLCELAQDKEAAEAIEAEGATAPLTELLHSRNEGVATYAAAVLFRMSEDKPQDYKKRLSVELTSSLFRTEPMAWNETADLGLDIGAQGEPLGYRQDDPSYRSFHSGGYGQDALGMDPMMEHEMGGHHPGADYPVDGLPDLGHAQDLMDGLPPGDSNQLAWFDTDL
- testProtocol: KD50 measurement using competitive fluorescence polarization (FP) with labelled TCF4
- Format: binding
- experimentalParameters: fluorescence polarization, β-catenin; read-out: β-Cat FP KD
- Protocol: Fluorescence polarization (FP) is another method used to analyze protein-ligand interactions. This methodology measures the change in fluorescence light emitted by a labelled compound free vs. conjugated to another compound in solution. Upon binding of the fluorescent molecule to a complex, polarization increases because of limited rotation of the fluorescent tracer. […] Data were analyzed and plotted in Microsoft Excel (Microsoft, Redmond, WA). […]
Where a SMILES comes first, the peptide text is derived from it.

CC[C@H](C)[C@@H]1NC(=O)[C@H](CC(C)C)NC(=O)[C@@H](NC(=O)[C@H](Cc2c[nH]c3ccccc23)NC(=O)[C@@H](N)CCSC)CCCCNC(=O)CC[C@@H](C(=O)N[C@@H](Cc2ccccc2)C(=O)N[C@@H](Cc2c[nH]c3ccccc23)C(=O)NCC(=O)O)NC1=O [compound 230] (HELM PEPTIDE1{M.W.K.L.I.E.F.W.G}$PEPTIDE1,PEPTIDE1,3:R3-6:R3$$$V2.0) = < 0.4 µM
CC[C@H](C)[C@@H]1NC(=O)[C@H](CC(C)C)NC(=O)[C@H](Cc2ccccc2)NC(=O)[C@H](Cc2c[nH]c3ccccc23)NC(=O)[C@@H](NC(C)=O)CC(=O)NCCCC[C@@H](C(=O)NCC(=O)O)NC(=O)[C@H](Cc2c[nH]c3ccccc23)NC(=O)[C@H](Cc2ccccc2)NC(=O)[C@H](CS)NC1=O [compound 175] (HELM PEPTIDE1{[ac].D.W.F.L.I.C.F.W.K.G}$PEPTIDE1,PEPTIDE1,2:R3-10:R3$$$V2.0) = 10 to 30 µM

We next turn to a different molecule, shown below.
Task: API: value(readout=Kd, system=β-catenin (Homo sapiens, UniProt P35222)) for record CC[C@H](C)[C@H](NC(=O)[C@H](CC(C)C)NC(=O)[C@@H](NC(=O)[C@H](Cc1c[nH]c2ccccc12)NC(C)=O)[C@@H](C)CC)C(=O)N[C@@H](CO)C(=O)N[C@@H](Cc1ccccc1)C(=O)N[C@@H](Cc1c[nH]c2ccccc12)C(=O)NCC(=O)O [compound 195] (Ac-WILISFWG-OH)
Result: < 0.4 µM
